Below: a set of entries, each annotated with reported Imax.
# targetOfAssay: G-protein coupled receptor 55 (Homo sapiens)
# Sequence (Q9Y2T6 whole entry): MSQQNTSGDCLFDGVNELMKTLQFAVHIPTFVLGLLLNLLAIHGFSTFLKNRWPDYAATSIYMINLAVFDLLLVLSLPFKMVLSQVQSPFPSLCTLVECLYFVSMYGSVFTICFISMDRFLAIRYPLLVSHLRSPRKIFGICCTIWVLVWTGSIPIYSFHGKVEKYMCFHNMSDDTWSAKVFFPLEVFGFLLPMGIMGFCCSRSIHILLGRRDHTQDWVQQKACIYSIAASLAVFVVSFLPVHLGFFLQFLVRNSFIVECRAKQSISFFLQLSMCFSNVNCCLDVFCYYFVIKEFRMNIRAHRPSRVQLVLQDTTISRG
# assayProtocol: Antagonist activity at recombinant human GPR55 expressed in CHO cells assessed as inhibition of lysophosphatidylinositol-induced beta-arrestin recruitment preincubated for 60 mins followed by lysophosphatidylinositol addition for 90 mins measured for 1 sec by luminescence assay
# Format: functional, cell-based

{"smilesRepresentation": "O=C1/C(=C/c2cccc(OCCCCCCOc3cccc(Cl)c3)c2)N=C2SCCCN12", "Imax, %": 37}
{"smilesRepresentation": "O=C1N=C2SCCN2/C1=C\\c1cccc(OCc2ccc(Cl)cc2)c1", "Imax, %": 19}
{"smilesRepresentation": "O=C1NC(=S)S/C1=C\\c1cccc(OCc2ccc(Cl)cc2)c1", "Imax, %": -18}
{"smilesRepresentation": "O=C1/C(=C/c2cccc(OCCCCCCOc3ccc(Cl)cc3)c2)N=C2SCCCN12", "Imax, %": 37}
{"smilesRepresentation": "O=C1/C(=C/c2cccc(OCCCCCCCOc3ccc(Cl)cc3)c2)N=C2SCCCN12", "Imax, %": 16}
{"smilesRepresentation": "O=C1/C(=C/c2cccc(OCCOc3ccc(Cl)cc3)c2)N=C2SCCCN12", "Imax, %": 99}
{"smilesRepresentation": "CCc1ccc(OCCCCCCOc2cccc(/C=C3\\N=C4SCCCN4C3=O)c2)cc1", "Imax, %": 37}
{"smilesRepresentation": "O=C1/C(=C/c2cccc(OCCCCCCCCOc3ccc(Cl)cc3)c2)N=C2SCCCN12", "Imax, %": 43}
{"smilesRepresentation": "CC(C)c1ccc(OCCCCCCOc2cccc(/C=C3\\N=C4SCCCN4C3=O)c2)cc1", "Imax, %": 32}
{"smilesRepresentation": "O=C1/C(=C/c2cccc(OCc3ccc(F)cc3)c2)N=C2SCCCN12", "Imax, %": 149}
